target: squalene synthetase (human HepG2 cell enzyme) (Homo sapiens, UniProt P37268); construct: endogenous in cells; assay: Squalene Synthase Assay (human HepG2 cell enzyme, 3H-farnesyl pyrophosphate substrate); details: 3 μM 3H-farnesyl pyrophosphate, pH 7.5, 30° C., 20 minutes
Sequence (P37268 whole entry): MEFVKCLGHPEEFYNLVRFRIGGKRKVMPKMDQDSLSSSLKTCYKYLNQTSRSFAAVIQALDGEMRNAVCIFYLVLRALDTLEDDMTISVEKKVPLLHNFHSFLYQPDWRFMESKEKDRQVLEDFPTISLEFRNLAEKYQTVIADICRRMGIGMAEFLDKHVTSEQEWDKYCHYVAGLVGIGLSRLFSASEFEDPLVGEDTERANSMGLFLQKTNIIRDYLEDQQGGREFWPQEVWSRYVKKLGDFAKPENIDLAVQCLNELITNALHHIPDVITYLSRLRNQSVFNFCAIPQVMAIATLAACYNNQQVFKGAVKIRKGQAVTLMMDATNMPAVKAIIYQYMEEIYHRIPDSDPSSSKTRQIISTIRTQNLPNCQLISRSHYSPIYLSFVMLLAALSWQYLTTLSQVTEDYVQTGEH
Let's look at some compounds and their measured IC50.
Answer format: numeric, nM implied, no suffix.

| compound | IC50 [nM] |
| --- | --- |
| C=C(CCC12OCC(OC(=O)C(C)(C)C)C(C(=O)O)(O1)C(OC(=O)/C=C/C(C)CC(C)CC)C2O)C(OC(C)=O)C(C)Cc1ccccc1 (centres unmarked) | 58.2 |

Please examine the following record next.
input: What is its IC50 for squalene synthetase (human HepG2 cell enzyme) (Homo sapiens, UniProt P37268)? Entry: C=C(CCC12OCC(OC(C)=O)C(C(=O)O)(O1)C(OC(=O)/C=C/C(C)CC(C)CC)C2O)C(OC(C)=O)C(C)Cc1ccccc1 (centres unmarked)
output: 2.95
